# TARGET ENTITY: UniProtKB P32245
# Sequence (P32245 whole entry): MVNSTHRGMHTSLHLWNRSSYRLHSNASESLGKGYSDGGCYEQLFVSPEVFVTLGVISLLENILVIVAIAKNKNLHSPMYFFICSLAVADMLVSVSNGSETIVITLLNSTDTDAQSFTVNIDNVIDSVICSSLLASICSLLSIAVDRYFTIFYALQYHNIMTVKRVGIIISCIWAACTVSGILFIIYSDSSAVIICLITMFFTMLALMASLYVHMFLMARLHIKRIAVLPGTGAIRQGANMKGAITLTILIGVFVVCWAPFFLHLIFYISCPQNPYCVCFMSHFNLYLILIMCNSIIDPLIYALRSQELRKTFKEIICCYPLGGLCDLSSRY
# METHOD SUMMARY: Activity against hMC4R transfected in HEK293 cells by intracellular cAMP accumulation
# Type: functional, cell-based
Mark true (1) only for %max values smaller than 10%; exact matches and larger values are false (0).

Query: API: query returns whether the molecule falls strictly under 10% in %max. Query: CCCC[C@@H]1NC(=O)CC[C@@H](C(N)=O)NC(=O)[C@H](Cc2c[nH]c3ccccc23)NC(=O)[C@H](CCCN=C(N)N)NC(=O)[C@@H](Cc2ccccc2)NC(=O)[C@@H](CCC(N)=O)NC1=O
Reply: true (1)

Further cases:
Query: Dear reviewer, please state whether CCCC[C@@H]1NC(=O)CC[C@@H](C(N)=O)NC(=O)[C@H](Cc2c[nH]c3ccccc23)NC(=O)[C@H](CCCN=C(N)N)NC(=O)[C@@H](Cc2ccccc2)NC(=O)[C@H](CC(=O)O)NC1=O has %max strictly beneath 10%.
Reply: true (1)

Query: Field: below-cutoff. Rule: recorded %max strictly less than 10%. Subject: CCCC[C@@H]1NC(=O)CC[C@@H](C(N)=O)NC(=O)[C@H](Cc2c[nH]c3ccccc23)NC(=O)[C@H](CCCN=C(N)N)NC(=O)[C@@H](Cc2ccc3ccccc3c2)NC(=O)[C@@H]2CCCN2C1=O
Reply: true (1)

Query: Answer whether the molecule CCCC[C@@H]1NC(=O)CC[C@@H](C(N)=O)NC(=O)[C@H](Cc2c[nH]c3ccccc23)NC(=O)[C@H](CCCN=C(N)N)NC(=O)[C@@H](Cc2ccc3ccccc3c2)NC(=O)[C@H](C(C)C)NC1=O has %max strictly less than 10%
Reply: false (0)

Query: I'd appreciate it if you could check whether CCCC[C@@H]1NC(=O)CC[C@@H](C(N)=O)NC(=O)[C@H](Cc2c[nH]c3ccccc23)NC(=O)[C@H](CCCN=C(N)N)NC(=O)[C@@H](Cc2ccccc2)NC(=O)[C@@H](CCCN=C(N)N)NC1=O has %max smaller than 10%.
Reply: false (0)

Query: Regarding CCCC[C@@H]1NC(=O)CC[C@@H](C(N)=O)NC(=O)[C@H](Cc2c[nH]c3ccccc23)NC(=O)[C@H](CCCN=C(N)N)NC(=O)[C@@H](Cc2ccc3ccccc3c2)NC(=O)[C@@H](CC(=O)O)NC1=O , kindly confirm whether its %max is beneath 10%.
Reply: true (1)

Query: Does this molecule meet the criterion %max < 10%? CCCC[C@@H]1NC(=O)CC[C@@H](C(N)=O)NC(=O)[C@H](Cc2c[nH]c3ccccc23)NC(=O)[C@H](CCCN=C(N)N)NC(=O)[C@@H](Cc2ccccc2)NC(=O)[C@H](C(C)C)NC1=O
Reply: false (0)

Query: Item CCCC[C@@H]1NC(=O)CC[C@@H](C(N)=O)NC(=O)[C@H](Cc2c[nH]c3ccccc23)NC(=O)[C@H](CCCN=C(N)N)NC(=O)[C@@H](Cc2ccc3ccccc3c2)NC(=O)[C@H](CCC(N)=O)NC1=O : %max beneath 10%, strictly?
Reply: false (0)

Query: Decide: %max of CCCC[C@@H]1NC(=O)CC[C@@H](C(N)=O)NC(=O)[C@H](Cc2c[nH]c3ccccc23)NC(=O)[C@H](CCCN=C(N)N)NC(=O)[C@@H](Cc2ccccc2)NC(=O)[C@H](Cc2c[nH]cn2)NC1=O strictly below 10%?
Reply: false (0)

Query: Lab note: %max threshold 10%. Does this molecule come in strictly under it? CCCC[C@@H]1NC(=O)CC[C@@H](C(N)=O)NC(=O)[C@H](Cc2c[nH]c3ccccc23)NC(=O)[C@H](CCCN=C(N)N)NC(=O)[C@@H](Cc2ccccc2)NC(=O)[C@H](CCCC)NC1=O
Reply: false (0)
